Protocol notes: in vitro
Applied conditions: human, hela cells, % viability, bulk resorufin, single well
Metric: viability at 28.5 h, 10 µM (%)

INSERT INTO measurements (compound, metric, numeric_readout) VALUES
  ('S=C(Nc1ccc2nc3c4ccccc4c4ccccc4c3nc2c1)N1CCOCC1 [CBK263153]', 'viability at 28.5 h, 10 µM', 94.7),
  ('Fc1ccc(-c2ccc3c(c2)COC2(CCNCC2)O3)cc1Cl [CBK060960]', 'viability at 28.5 h, 10 µM', 89.8),
  ('O=C1NC(=O)C(=Cc2ccccc2OS(=O)(=O)c2ccc3ccccc3c2)C(=O)N1 [CBK263599]', 'viability at 28.5 h, 10 µM', 64),
  ('NS(=O)(=O)c1ccc(N/C=C2\C(=O)NC(=O)N(Cc3ccccc3Cl)C2=O)cc1 [CBK265586]', 'viability at 28.5 h, 10 µM', 92.3),
  ('COc1cccc2c1OCCC2CNCCCc1ccccc1 (centres unmarked) [CBK007716]', 'viability at 28.5 h, 10 µM', 91.8),
  ('NC(=O)C[S+]([O-])C(c1ccccc1)c1ccccc1 (centres unmarked) [CBK026184]', 'viability at 28.5 h, 10 µM', 102),
  ('Cc1[nH]c2c(Cl)cc(Cl)cc2c1CCN [CBK070893]', 'viability at 28.5 h, 10 µM', 103),
  ('O=C(O)C1C2CCC(O2)C1C(=O)NC1CCCCC1 (centres unmarked) [CBK286848]', 'viability at 28.5 h, 10 µM', 85),
  ('CNCCc1csc2ccccc12 [CBK027127C]', 'viability at 28.5 h, 10 µM', 118),
  ('COc1cccc2c1OC1(CCN(C(=O)c3ccno3)CC1)OC2 [CBK061071]', 'viability at 28.5 h, 10 µM', 97),
  ('O=C1NC(=O)N(c2cccc([N+](=O)[O-])c2)C(=O)/C1=C\c1ccccc1OCc1ccc(C(=O)O)cc1 [CBK265484]', 'viability at 28.5 h, 10 µM', 106),
  ('CC(N)c1cc2ccccc2o1 (centres unmarked) [CBK001492C]', 'viability at 28.5 h, 10 µM', 97.7),
  ('COC(=O)c1ccc(N2C(=O)NC(=O)/C(=C\c3ccc(OCC(=O)O)cc3)C2=O)cc1 [CBK265407]', 'viability at 28.5 h, 10 µM', 85.2),
  ('CCC(=O)N1CCC(C#N)(c2ccccc2)CC1 [CBK091400]', 'viability at 28.5 h, 10 µM', 87),
  ('Clc1cncc(N2CCNCC2)c1 [CBK022556F]', 'viability at 28.5 h, 10 µM', 117),
  ('O=C1NC(=O)N(c2ccc(O)cc2)C(=O)/C1=C/c1ccc(OCc2ccc(Cl)cc2Cl)cc1 [CBK263842]', 'viability at 28.5 h, 10 µM', 92.1),
  ('NCCCC(=O)OC1N=C(c2ccccc2Cl)c2cc(Br)ccc2NC1=O (centres unmarked) [CBK264689B]', 'viability at 28.5 h, 10 µM', 104),
  ('O=[N+]([O-])c1ccc(Cl)cc1CN1CCN(c2ccccc2)CC1 [CBK261556]', 'viability at 28.5 h, 10 µM', 89.3),
  ('COc1cc(C=C2C(=O)NC(=S)NC2=O)ccc1OCc1c(C)no[n+]1[O-] [CBK263467]', 'viability at 28.5 h, 10 µM', 95.8),
  ('Cc1ccc(Cn2nc(C(=O)Nc3ccc4c(c3)OCO4)c3ccccc32)cc1 [CBK047847]', 'viability at 28.5 h, 10 µM', 87),
  ('CCOC(=O)C1(c2ccccc2)CCN(C(=O)Cc2ccsc2)CC1 [CBK132172]', 'viability at 28.5 h, 10 µM', 93),
  ('Cc1nc(C)c(C(=O)Nc2ccccc2-c2ccc3c(c2)COC2(CCNCC2)O3)s1 [CBK107628]', 'viability at 28.5 h, 10 µM', 96.8),
  ('O=C(O)COc1ccccc1/C=C1\C(=O)NC(=O)N(c2ccc(OCc3ccccc3)cc2)C1=O [CBK265419]', 'viability at 28.5 h, 10 µM', 114),
  ('O=C1NC(=O)N(c2ccc(Cl)cc2)C(=O)/C1=C\NC(CO)(CO)CO [CBK264421]', 'viability at 28.5 h, 10 µM', 99.7),
  ('COc1cc(C=C2C(=O)NC(=O)NC2=O)cc(I)c1OCc1ccc(Cl)cc1Cl [CBK262528]', 'viability at 28.5 h, 10 µM', 91.8),
  ('Cc1ccc(Cn2nc(C(=O)NCC3COc4ccccc4O3)c3ccccc32)cc1 (centres unmarked) [CBK047831]', 'viability at 28.5 h, 10 µM', 91.2),
  ('Cc1cc(C=C2C(=O)NC(=O)NC2=O)c(C)n1C1CCCCC1 [CBK263426]', 'viability at 28.5 h, 10 µM', 93.6),
  ('COc1ccc2c(c1)COC1(CCN(C(=O)NC(=O)c3ccccc3)CC1)O2 [CBK060804]', 'viability at 28.5 h, 10 µM', 95.7),
  ('CCOc1ccc(N2C(=O)NC(=O)/C(=C\NC(C)(CO)CO)C2=O)cc1 [CBK261437]', 'viability at 28.5 h, 10 µM', 99.5),
  ('Cc1c([N+](=O)[O-])c([N+](=O)[O-])nn1CC(=O)NCc1cccnc1 [CBK262428]', 'viability at 28.5 h, 10 µM', 97.2),
  ('CC(=O)c1c(O)n(C2CCCCC2)c(=O)[nH]c1=O [CBK287861]', 'viability at 28.5 h, 10 µM', 91.9),
  ('CC(C)N(CCc1cc2ccccc2o1)C(C)C [CBK011518C]', 'viability at 28.5 h, 10 µM', 113),
  ('CCOC(=O)C1(c2ccccc2)CCN(C(=O)c2cccc3[nH]ccc23)CC1 [CBK132193]', 'viability at 28.5 h, 10 µM', 95.7),
  ('COc1ccc(CC(=O)N2CCC(C#N)(c3ccccc3)CC2)c(OC)c1 [CBK091388]', 'viability at 28.5 h, 10 µM', 91.4),
  ('Cc1ccc(Cn2nc(C(=O)Nc3nc4ccccc4s3)c3ccccc32)cc1 [CBK047837]', 'viability at 28.5 h, 10 µM', 92.4),
  ('COc1ccc(CCn2nc(C(=O)O)c3ccccc32)cc1 [CBK093525]', 'viability at 28.5 h, 10 µM', 85),
  ('CCc1cc(C)cc(OCCOc2ccccc2C=C2C(=O)NC(=S)NC2=O)c1 [CBK263579]', 'viability at 28.5 h, 10 µM', 120),
  ('c1ccc(-c2cccc3c2OC2(CCNCC2)OC3)cc1 [CBK061589]', 'viability at 28.5 h, 10 µM', 105);
